# Test system: U2OS
# Experiment Description: Multiplex assay against U2OS
# Assay type: toxicity, cell-based
# Assay Setup: human, 24 h, 1 µM, compound concentration 1 uM, replicate 1
Measured Property: Population Hoechst High Intensity Objects (%)

[[record]]
molecule = "Cc1nc(Cc2cccc(C(F)(F)F)c2)sc1-c1ccc(C(N)=O)nc1 [TP-024n]"
units_of_measure = "%"
value = 4

[[record]]
molecule = "CCOc1cc(N2CCC(O)CC2)ccc1Nc1ncc2c(n1)N(C1CCCC1)CCC(=O)N2C"
units_of_measure = "%"
value = 2

[[record]]
molecule = "CNC(=O)c1cc(Oc2ccc(NC(=O)Nc3cc(C(C)(C)C)nn3-c3ccc4ncccc4c3)c(F)c2)ccn1"
units_of_measure = "%"
value = 2

[[record]]
molecule = "CCc1cc2c(cc1CC)CC(NC[C@H](O)c1ccc(O)c3[nH]c(=O)ccc13)C2"
units_of_measure = "%"
value = 6

[[record]]
molecule = "CCn1c(-c2nonc2N)nc2cnc(Oc3cccc(NC(=O)c4ccc(OCCN5CCOCC5)cc4)c3)cc21 [GSK-269962A]"
units_of_measure = "%"
value = 7

[[record]]
molecule = "CNc1oc(-c2cccc3ccccc23)nc1C#N"
units_of_measure = "%"
value = 17

[[record]]
molecule = "CN(C)CCOc1ccc(-c2nc(-c3ccncc3)c(-c3ccc4c(c3)CC/C4=N\\O)[nH]2)cc1"
units_of_measure = "%"
value = 19

[[record]]
molecule = "CNC(=O)c1nn(C)c2c1C(C)(C)Cc1cnc(Nc3ccc(N4CCN(C)CC4)cc3)nc1-2"
units_of_measure = "%"
value = 11

[[record]]
molecule = "CCC(=O)O[C@]1(C(=O)SCF)[C@H](C)C[C@H]2[C@@H]3C[C@H](F)C4=CC(=O)C=C[C@]4(C)[C@@]3(F)[C@@H](O)C[C@@]21C [FLUTICASONE PROPIONATE]"
units_of_measure = "%"
value = 3

[[record]]
molecule = "COc1cc2c(Nc3ccc(NC(=O)c4ccccc4)cc3)ncnc2cc1OCCCN1CCOCC1"
units_of_measure = "%"
value = 2

[[record]]
molecule = "CC(=O)c1cc(-c2cc(C(=O)NC3CC3)ccc2C)c2ncccn12"
units_of_measure = "%"
value = 4

[[record]]
molecule = "Cc1cc2c(cc1N1C(=O)c3cccc4c(CCCO)ccc(c34)C1=O)n(C)c(=O)n2C"
units_of_measure = "%"
value = 3

[[record]]
molecule = "CCCn1c(=O)c2[nH]c(C34CC5CC(CC3C5)C4)nc2n(CCC)c1=O"
units_of_measure = "%"
value = 2

[[record]]
molecule = "Cc1cn(-c2cc(NC(=O)c3ccc4c(c3)CN(c3cncnc3)C[C@@H]4C)cc(C(F)(F)F)c2)cn1"
units_of_measure = "%"
value = 3

[[record]]
molecule = "CCOc1cc2ncc(C#N)c(Nc3ccc(OCc4cccc(F)c4)c(Cl)c3)c2cc1NC(=O)/C=C/CN(C)C"
units_of_measure = "%"
value = 2

[[record]]
molecule = "Cl.Cl.Nc1ncnc2c1c(-c1cccc(OCc3ccccc3)c1)cn2[C@H]1C[C@@H](CN2CCC2)C1"
units_of_measure = "%"
value = 4

[[record]]
molecule = "CC(C)N1CCC(C)(C)c2cc(C#Cc3ccc(C(=O)O)cc3)ccc21"
units_of_measure = "%"
value = 7

[[record]]
molecule = "Nc1ccc(C(=O)Nc2cccc(-c3nc(N4CCOCC4)c4oc5ncccc5c4n3)c2)cn1"
units_of_measure = "%"
value = 7

[[record]]
molecule = "c1ccc2oc(-c3csc(C4CCN(Cc5nc6ncccc6[nH]5)CC4)n3)cc2c1"
units_of_measure = "%"
value = 2

[[record]]
molecule = "CC(C)Oc1ccc(C(=O)N[C@H](CNC(=O)CN(C)C)Cc2ccc(-c3cn4cccc([C@H](C)O)c4n3)cc2)cc1Cl [GSK-923295A]"
units_of_measure = "%"
value = 2

[[record]]
molecule = "COc1ccc(NS(=O)(=O)c2sc3ccc(Cl)cc3c2C)cc1N1CCNCC1.Cl"
units_of_measure = "%"
value = 5

[[record]]
molecule = "CC(C)(C)c1cnc(CSc2cnc(NC(=O)C3CCNCC3)s2)o1"
units_of_measure = "%"
value = 5

[[record]]
molecule = "COc1cc2c(NC3CCN(C(C)C)CC3)nc(N3CCC(F)(F)CC3)nc2cc1OCCCN1CCCC1"
units_of_measure = "%"
value = 11

[[record]]
molecule = "O=C(O)c1ccc2cc(-c3ccc(O)c(C45CC6CC(CC(C6)C4)C5)c3)ccc2c1"
units_of_measure = "%"
value = 11

[[record]]
molecule = "FC(F)c1nc2ccccc2n1-c1nc(N2CCOCC2)nc(N2CCOCC2)n1"
units_of_measure = "%"
value = 2

[[record]]
molecule = "Cl.Cl.NC1(c2ccc(-c3nc4ccn5c(=O)[nH]nc5c4cc3-c3ccccc3)cc2)CCC1"
units_of_measure = "%"
value = 1

[[record]]
molecule = "Nc1nc2c(c(N3CCNCC3)n1)CCC1=C2[C@@H]2CCCC[C@@H]2O1"
units_of_measure = "%"
value = 4

[[record]]
molecule = "CN(C)C/C=C/C(=O)Nc1cc2c(Nc3ccc(F)c(Cl)c3)ncnc2cc1O[C@H]1CCOC1.O=C(O)/C=C\\C(=O)O.O=C(O)/C=C\\C(=O)O [AFATINIB DIMALEATE]"
units_of_measure = "%"
value = 1

